# METHOD NOTES: physchem
# TEST CONDITIONS: octan-1-ol/water, pH 7.4, LogD7.4
Reported logD values for a set of compounds

{"COMPOUND": "Cc1nn(C2CCOCC2)c(NS(=O)(=O)c2ccc(C3CC3)cc2)c1C(=O)N[C@@H](C)C(C)(C)C", "VALUE REPORTED": 1.23}

Look up and report measured logD for this entry: c1ccc(Sc2ccc3ccccc3n2)cc1
3.92

Look up and report measured logD for this entry: COc1cccc(S(=O)(=O)c2c(C)n(CC(=O)O)c3ccc(C)cc23)c1
-0.42

Look up and report measured logD for this entry: COc1ccc(CC(=O)NC(NC(=NC#N)Nc2ccccc2C)C(C)(C)C)cc1OC (stereo unspecified)
2.48

Look up and report measured logD for this entry: Cc1cc(CN2Cc3ccccc3C[C@H]2C(=O)Nc2ccc(Cl)cc2Cl)ccc1OCC(=O)O
2.41

Look up and report measured logD for this entry: COc1cc(N2CCN(C(C)=O)CC2)ccc1Nc1ncc(Cl)c(-c2cnc3cc(N4CCCC4)ccn23)n1
3.5
